Collected set of IC50 measured with UniProtKB Q99685 across studies.
Labelling: IC50 reported below 20 nM becomes 1.0; at or above becomes 0.0.

Would you please look over these solved cases?
C/C(=C\c1ccc(Cl)cc1)c1c(C)c(C(=O)N2CC(N3CCN(C(=O)C(F)(F)F)CC3)C2)nn1-c1ccc(Cl)cc1Cl
1.0
O=C(c1cccc(CNc2ccccc2F)c1)N1CC(N2CCN(C(=O)c3nccs3)CC2)C1
0.0
O=C1CO[C@H]2CCN(C(=O)N3CCC(Oc4ccc(C(F)(F)F)c(C5CC5)c4)CC3)C[C@H]2N1
1.0

Query :: Please check: IC50 for O=C1CO[C@H]2CCN(C(=O)N3CCN(c4ccc(Oc5ccccc5)cc4)CC3)C[C@H]2N1 , strictly under 20 nM or not?
Result :: 0.0

Query :: Please check: IC50 for Cn1cc(-c2cccc(F)c2)c2ccc(C(=O)N3CC(N[C@H]4CCN(C(=O)c5cscn5)C4)C3)cc21 , strictly under 20 nM or not?
Result :: 0.0

Query :: Please check: IC50 for Cc1cc(OC(F)(F)F)ccc1COC1CN(C(=O)N2CC[C@@H]3OCC(=O)N[C@@H]3C2)C1C (some centres unmarked) , strictly under 20 nM or not?
Result :: 1.0

Query :: Please check: IC50 for Cc1c(-c2ccccc2)oc2c(C(=O)N3CCN(C4CN(C(=O)c5cscn5)C4)CC3c3ccccc3)cccc2c1=O (centres unmarked) , strictly under 20 nM or not?
Result :: 0.0

Query :: Please check: IC50 for N#Cc1ccccc1-n1ccc2cc(C(=O)N3CC(N4CCN(C(=O)c5cscn5)CC4)C3)ccc21 , strictly under 20 nM or not?
Result :: 0.0

Query :: Please check: IC50 for O=C(c1ccc2nc(-c3ccccc3)oc2c1)N1CCC(C2CN(C(=O)c3ccc[nH]3)C2)CC1 , strictly under 20 nM or not?
Result :: 0.0

Query :: Please check: IC50 for O=C1CO[C@H]2CCN(C(=O)N3CC(c4ccc(Oc5ccncc5F)cc4)C3)C[C@H]2N1 , strictly under 20 nM or not?
Result :: 1.0
